Molecular target: T1, human tissue factor pathway inhibitor (TFPI) (human, UniProt P10646 29-304, limits assumed)
T1 construct: bought; also called hTFPI; human TFPI
T1 sequence (looked up): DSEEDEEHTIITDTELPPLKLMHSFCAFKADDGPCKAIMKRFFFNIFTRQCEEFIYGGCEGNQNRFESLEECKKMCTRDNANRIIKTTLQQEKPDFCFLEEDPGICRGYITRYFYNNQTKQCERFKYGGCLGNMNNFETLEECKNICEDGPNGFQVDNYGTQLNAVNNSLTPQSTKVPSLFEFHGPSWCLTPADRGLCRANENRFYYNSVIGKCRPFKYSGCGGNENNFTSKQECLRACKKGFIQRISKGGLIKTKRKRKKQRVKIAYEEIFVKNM
Assay: competitive ELISA
propertyMeasured: variant/HC_D62R (ratio)
Quick reminder: number only, in ratio, skip the unit.

Memo: 4B7 HC N32D+D62R+H107M+Y112D/LC F31M+S32R+D33R (Fab, V domains shown) VH: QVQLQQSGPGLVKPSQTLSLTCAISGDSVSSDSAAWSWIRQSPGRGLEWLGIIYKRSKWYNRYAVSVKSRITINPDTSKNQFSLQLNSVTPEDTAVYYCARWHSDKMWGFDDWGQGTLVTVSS VL: DIVMTQSPLSLPVTPGEPASISCRSSQSLVMRRGNTYLNWYLQKPGQSPQLLIYKGSNRASGVPDRFSGSGSGTDFTLKISRVEAEDVGVYYCQQYDSYPLTFGQGTKVEIKR , reported variant/HC_D62R: 18.6

variant/HC_D62R recorded for this binder, 4B7 HC N32D+D62Q+H107M+Y112D/LC S32R+D33R (Fab, V domains shown) VH: QVQLQQSGPGLVKPSQTLSLTCAISGDSVSSDSAAWSWIRQSPGRGLEWLGIIYKRSKWYNQYAVSVKSRITINPDTSKNQFSLQLNSVTPEDTAVYYCARWHSDKMWGFDDWGQGTLVTVSS VL: DIVMTQSPLSLPVTPGEPASISCRSSQSLVFRRGNTYLNWYLQKPGQSPQLLIYKGSNRASGVPDRFSGSGSGTDFTLKISRVEAEDVGVYYCQQYDSYPLTFGQGTKVEIKR , is 24.9
